Biological target: human cloned CHRM4 receptor (M4_CHO cells) (Homo sapiens)
Construct: expressed in transfected cells; host or cells: CHO-K1
Sequence (P08173 1-479): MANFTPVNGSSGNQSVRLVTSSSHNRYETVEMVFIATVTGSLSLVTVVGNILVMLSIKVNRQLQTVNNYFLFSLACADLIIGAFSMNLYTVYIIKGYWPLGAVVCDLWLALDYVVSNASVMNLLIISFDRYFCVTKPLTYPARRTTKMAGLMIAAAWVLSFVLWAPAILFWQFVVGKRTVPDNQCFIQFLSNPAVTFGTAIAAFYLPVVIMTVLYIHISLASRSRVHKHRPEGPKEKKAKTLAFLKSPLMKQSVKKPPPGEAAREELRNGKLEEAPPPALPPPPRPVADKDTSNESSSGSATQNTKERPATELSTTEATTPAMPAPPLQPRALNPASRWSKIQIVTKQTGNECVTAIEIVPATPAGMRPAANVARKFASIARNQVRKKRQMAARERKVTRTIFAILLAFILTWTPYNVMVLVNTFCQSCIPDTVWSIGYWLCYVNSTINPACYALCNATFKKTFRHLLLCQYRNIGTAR
Test: CHRM4 Ca++ Flux Assay (agonist mode, FDSS 7000EX)
Type: cell-based
Details: geometric mean if tested more than once, read-out: M4 FDSS EC50
endpoint-name: EC50 (nM)

COCCOc1ccccc1C1CCN([C@@H]2CCC3(C2)CN(c2nnco2)C3)CC1 ... 1

P: Cc1nc(COc2ccccc2C2CCN([C@@H]3CCC4(C3)CN(C(=O)C3(F)CC3)C4)CC2)no1 (single isomer, unassigned) [Example 7Z]
Q: c1ccc(C2CCN([C@@H]3CCC4(C3)CN(c3cncnc3)C4)CC2)c(C2CCOCC2)c1
Kindly identify which of P and Q has the larger recorded EC50 value. Provide the label of your selected option as the answer.
Q
(Q: 17 nM, P: 9 nM)

A: COc1ccccc1C1CCN([C@@H]2CCC3(C2)CN(c2ncnc(C)n2)C3)CC1
B: COc1ccccc1C1CCN([C@@H]2CCC3(C2)CN(c2nccnc2C)C3)CC1
Of A and B , which carries the smaller reported EC50 figure? Provide the label of your selected option as the answer.
B

====

biological target: human cloned CHRM5 receptor (M5_CHO) (Homo sapiens, UniProt P08912); construct: expressed in transfected cells; host or cells: CHO (M5_CHO); assay: CHRM5 Ca++ Flux Assay (agonist mode, FDSS 7000EX); type: cell-based; details: Percent Activity measured to EC100 of Carbachol; read-out: M5 FDSS PA
Sequence (P08912 whole entry): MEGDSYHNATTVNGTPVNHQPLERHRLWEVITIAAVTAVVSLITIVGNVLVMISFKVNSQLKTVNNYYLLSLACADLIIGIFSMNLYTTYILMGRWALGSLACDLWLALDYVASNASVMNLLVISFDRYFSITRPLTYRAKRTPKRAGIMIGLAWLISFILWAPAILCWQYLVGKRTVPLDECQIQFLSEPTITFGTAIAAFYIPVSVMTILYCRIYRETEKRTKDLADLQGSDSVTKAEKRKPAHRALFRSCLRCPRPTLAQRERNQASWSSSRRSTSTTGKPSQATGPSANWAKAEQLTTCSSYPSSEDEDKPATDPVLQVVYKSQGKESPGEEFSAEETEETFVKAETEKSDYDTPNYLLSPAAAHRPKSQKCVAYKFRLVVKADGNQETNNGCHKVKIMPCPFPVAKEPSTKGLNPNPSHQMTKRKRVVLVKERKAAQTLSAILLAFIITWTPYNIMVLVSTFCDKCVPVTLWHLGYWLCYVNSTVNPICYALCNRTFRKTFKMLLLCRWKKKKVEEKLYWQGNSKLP
endpoint-name: Emax (%)

Reference set (3 entries):
c1ccc(C2CCN([C@@H]3CCC4(C3)CN(c3nncs3)C4)CC2)c(OC[C@@H]2COCCO2)c1 [Example 3C] ... 0
COc1ccccc1C1CCN([C@@H]2CCC3(C2)CN(c2cc(Cl)nnc2Cl)C3)CC1 [Example 5R] ... 1
c1ccc(C2CCN([C@@H]3CCC4(C3)CN(c3cncnc3)C4)CC2)c(OC2CC3(COC3)C2)c1 [Example 1O] ... 0

1: c1ccc(C2CCN([C@@H]3CCC4(C3)CN(c3nnco3)C4)CC2)c(CC2CCOCC2)c1 [Example 2L]
2: COc1ccccc1C1CCN([C@@H]2CCC3(C2)CN(c2ncon2)C3)CC1 [Example 4A]
Kindly identify which of 1 and 2 has the larger recorded Emax value. Provide the label of your selected option as the answer.
2
(2: 6%, 1: 0%)

I: COc1ccc(Cl)cc1C1CCN([C@@H]2CCC3(C2)CN(c2ccnnc2)C3)CC1 [Example 5P]
II: c1ccc(C2CCN([C@@H]3CCC4(C3)CN(c3nncs3)C4)CC2)c(OC[C@H]2COCCO2)c1 [Example 3B]
Of I and II , which carries the smaller reported Emax figure? Provide the label of your selected option as the answer.
II
(II: 0%, I: 8%)

====

biological target: human cloned CHRM2 receptor (M2_CHO cells) (Homo sapiens); construct: expressed in transfected cells; host or cells: CHO-K1; experiment: CHRM2 Ca++ Flux Assay (agonist mode, FDSS 7000EX); format: cell-based; conditions: agonist mode; geometric mean if tested more than once; read-out: M2 FDSS EC50
Sequence (P08172 whole entry): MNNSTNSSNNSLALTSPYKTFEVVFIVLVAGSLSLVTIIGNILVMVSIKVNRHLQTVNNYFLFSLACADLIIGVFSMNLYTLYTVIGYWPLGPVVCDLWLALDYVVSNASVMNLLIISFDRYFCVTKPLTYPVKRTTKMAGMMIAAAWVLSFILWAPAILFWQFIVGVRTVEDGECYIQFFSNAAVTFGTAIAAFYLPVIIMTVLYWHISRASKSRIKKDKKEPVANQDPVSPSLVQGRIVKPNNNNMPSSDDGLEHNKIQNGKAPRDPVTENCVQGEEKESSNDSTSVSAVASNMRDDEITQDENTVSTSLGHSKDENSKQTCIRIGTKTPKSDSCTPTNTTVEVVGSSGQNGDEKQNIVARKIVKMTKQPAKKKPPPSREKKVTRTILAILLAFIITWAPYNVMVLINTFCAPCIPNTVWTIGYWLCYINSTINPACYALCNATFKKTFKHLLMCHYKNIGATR
pEC50: −log10 of the molar value.
endpoint-name: pEC50

CC1(COc2ccccc2C2CCN([C@@H]3CCC4(C3)CN(c3nnco3)C4)CC2)CCOCC1 ... 7.05
Cc1ccc(N2CC3(CC[C@@H](N4CCC(c5ccccc5O[C@@H]5CCOC5)CC4)C3)C2)cn1 ... 5.10
c1ccc(C2CCN([C@@H]3CCC4(C3)CN(c3cncnc3)C4)CC2)c(OC2COC2)c1 ... 7.54

I: c1ccc(C2CCN([C@@H]3CCC4(C3)CN(c3cncnc3)C4)CC2)c(C2CCOCC2)c1
II: COc1ccc(F)cc1C1CCN([C@@H]2CCC3(C2)CN(C(=O)C2COC2)C3)CC1
Of I and II , which carries the smaller reported pEC50 figure? Provide the label of your selected option as the answer.
I
(I: 6.13, II: 7.49)

P: COC(C)(C)COc1ccccc1C1CCN([C@@H]2CCC3(C2)CN(C(=O)C2COC2)C3)CC1
Q: c1ccc(C2CCN([C@@H]3CCC4(C3)CN(c3nncs3)C4)CC2)c(OCC2CCOCC2)c1
Kindly identify which of P and Q has the larger recorded pEC50 value. Provide the label of your selected option as the answer.
Q

====

target: human cloned CHRM4 receptor (M4_CHO cells) (Homo sapiens, UniProt P08173); construct: expressed in transfected cells; host or cells: CHO-K1; assay: CHRM4 Ca++ Flux Assay (agonist mode, FDSS 7000EX); type: cell-based; conditions: Percent Activity, read-out: M4 FDSS PA
endpoint-name: Emax (%)

c1ccc(C2CCN([C@@H]3CCC4(C3)CN(c3ncncn3)C4)CC2)c(OCC2CCOCC2)c1 [Example 5Q] ... 54
O=C(C1COC1)N1CC2(CC[C@@H](N3CCC(c4ccccc4OCC4(C(F)(F)F)CC4)CC3)C2)C1 [Example 7II] ... 50
O=C(C1COC1)N1CC2(CC[C@@H](N3CCC(c4ccccc4Oc4nccs4)CC3)C2)C1 [Example 7C] ... 39
COc1ccc(F)cc1C1CCN([C@@H]2CCC3(C2)CN(c2ccnnc2)C3)CC1 [Example 5V] ... 59
CC(C)Oc1ccccc1C1CCN([C@@H]2CCC3(C2)CN(C(=O)C2COC2)C3)CC1 [Example 7K] ... 76
COc1ccccc1C1CCN([C@@H]2CCC3(C2)CN(c2nncs2)C3)CC1 [Example 3D] ... 71
O=C(C1COC1)N1CC2(CC[C@@H](N3CCC(c4ccccc4OC4CC4)CC3)C2)C1 [Example 7A] ... 71
CC(C)Oc1cc(F)ccc1C1CCN([C@@H]2CCC3(C2)CN(C(=O)C2COC2)C3)CC1 [Example 6D] ... 53
c1ccc(C2CCN([C@@H]3CCC4(C3)CN(c3cncnc3)C4)CC2)c(OC2CCOCC2)c1 [Example 1L] ... 67
COc1ccccc1C1CCN([C@@H]2CCC3(C2)CN(c2cnccn2)C3)CC1 [Example 5H] ... 61

1: O=C(C1COC1)N1CC2(CC[C@@H](N3CCC(c4ccccc4OCCC4COC4)CC3)C2)C1 [Example 7KK]
2: c1ccc(C2CCN([C@@H]3CCC4(C3)CN(c3nnco3)C4)CC2)c(OC[C@@H]2COCCO2)c1 [Example 1E]
Kindly identify which of 1 and 2 has the larger recorded Emax value. Provide the label of your selected option as the answer.
2
(2: 72%, 1: 47%)

a: COc1ccccc1C1CCN([C@@H]2CCC3(C2)CN(c2ncnc(C)n2)C3)CC1 [Example 5M]
b: c1ccc(C2CCN([C@@H]3CCC4(C3)CN(c3nncs3)C4)CC2)c(OC[C@@H]2COCCO2)c1 [Example 3C]
Of a and b , which carries the smaller reported Emax figure? Provide the label of your selected option as the answer.
a
(a: 43%, b: 66%)

====

target: human cloned CHRM4 receptor (M4_CHO cells) (Homo sapiens, UniProt P08173); construct: expressed in transfected cells; host or cells: CHO-K1; test: CHRM4 Ca++ Flux Assay (agonist mode, FDSS 7000EX); format: cell-based; conditions: geometric mean if tested more than once, read-out: M4 FDSS EC50
endpoint-name: EC50 (nM)

Reference set (2 entries):
COc1ccccc1C1CCN([C@H]2CCC3(C2)CN(c2ncco2)C3)CC1 (single isomer, unassigned) [Example 10J] ... 1
CC(C)(O)COc1ccccc1C1CCN([C@@H]2CCC3(C2)CN(c2cncnc2)C3)CC1 ... 4

P: O=C(C1COC1)N1CC2(CC[C@@H](N3CCC(c4ccccc4OC4CC4)CC3)C2)C1
Q: CC(C)(O)COc1ccccc1C1CCN([C@@H]2CCC3(C2)CN(C(=O)C2COC2)C3)CC1
R: COc1ccc(Cl)cc1C1CCN([C@H]2CCC3(C2)CN(C(=O)C2(F)CC2)C3)CC1 (single isomer, unassigned) [Example 8B]
S: c1ccc(C2CCN([C@@H]3CCC4(C3)CN(c3nnco3)C4)CC2)c(OC2CCOCC2)c1
T: c1ccc(C2CCN([C@@H]3CCC4(C3)CN(c3nncs3)C4)CC2)c(OC[C@@H]2COCCO2)c1
Which order do these items take when sorted by rising EC50? List them. Reply with the item labels sorted in the order that was asked for.
R, T, P, S, Q
(R: 1 nM, T: 2 nM, P: 4 nM, S: 7 nM, Q: 20 nM)
